Recorded hepatic extraction ratio at 1 µM values for a group of compounds are listed next.
assay: Metabolic stability in mouse liver microsomes assessed as hepatic extraction ratio at 1 uM preincubated for 5 mins followed by NADPH addition measured for 5 to 60 mins by LC-MS/MS analysis; type: ADME, Microsome; details: time 10-65 min, read-out: ERH

[
  {
    "compound": "CNC(=O)[C@H](Cc1cccc(Br)c1)NC(=O)[C@H](Cc1ccc(C(N)=O)cc1)NC(=O)C(c1ccccc1)C1CCCCC1 (some centres not stated)",
    "hepatic extraction ratio at 1 µM": 0.986
  },
  {
    "compound": "CNC(=O)[C@H](Cc1cccc(Br)c1)NC(=O)c1cc(-c2ccccc2)nn1Cc1ccccc1F",
    "hepatic extraction ratio at 1 µM": 0.721
  }
]

###

target: UniProt:P07550; test: Negative allosteric modulation of beta-2 adrenergic receptor (unknown origin) transfected in HEK293 cells assessed as decrease in cAMP accumulation at 50 uM preincubated for 20 mins followed by ISO treatment for 5 mins for by Glo sensor assay relative to 4-((2S)-3-(((S)-3-(3-bromophenyl)-1-(methylamino)-1-oxopropan-2-yl)amino)-2-(2-cyclohexyl-2-phenylacetamido)-3-oxopropyl)benzamide; format: functional, cell-based; conditions: filed as negative allosteric modulator, time 25.0 min
Sequence (P07550 whole entry, looked up): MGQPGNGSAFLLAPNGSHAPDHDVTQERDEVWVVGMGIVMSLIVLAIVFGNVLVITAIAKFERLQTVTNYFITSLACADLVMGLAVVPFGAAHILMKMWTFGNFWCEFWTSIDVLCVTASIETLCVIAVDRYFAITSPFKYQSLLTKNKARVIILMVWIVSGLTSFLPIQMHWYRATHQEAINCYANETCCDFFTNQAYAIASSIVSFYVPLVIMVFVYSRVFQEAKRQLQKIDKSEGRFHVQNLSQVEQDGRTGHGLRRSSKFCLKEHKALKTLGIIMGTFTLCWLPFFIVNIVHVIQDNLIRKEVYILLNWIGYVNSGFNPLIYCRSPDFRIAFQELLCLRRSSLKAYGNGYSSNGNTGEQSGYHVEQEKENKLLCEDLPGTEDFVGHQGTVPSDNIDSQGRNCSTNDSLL
Entries annotated with measured Imax
assay-metric: Imax (%)

[
  {
    "molecule": "CNC(=O)[C@H](Cc1cccc(Br)c1)NC(=O)c1cc(-c2ccccc2)nn1Cc1ccc(C#N)cc1",
    "target": "UniProt:P07550",
    "assay-metric": "Imax",
    "experimental-value": 100
  },
  {
    "molecule": "CNC(=O)[C@H](Cc1cccc(Br)c1)NC(=O)c1cc(-c2ccccc2)nn1Cc1ccccc1C#N",
    "target": "UniProt:P07550",
    "assay-metric": "Imax",
    "experimental-value": 67
  },
  {
    "molecule": "CNC(=O)[C@H](Cc1cccc(Br)c1)NC(=O)c1cc(-c2cccc(Br)c2)nn1Cc1cccc(Br)c1",
    "target": "UniProt:P07550",
    "assay-metric": "Imax",
    "experimental-value": 100
  },
  {
    "molecule": "CNC(=O)[C@H](Cc1cccc(Br)c1)NC(=O)c1cc(-c2cccc(Cl)c2)nn1Cc1cccc(Br)c1",
    "target": "UniProt:P07550",
    "assay-metric": "Imax",
    "experimental-value": 127
  },
  {
    "molecule": "CNC(=O)[C@H](Cc1cccc(Br)c1)NC(=O)c1cc(-c2ccccc2Br)nn1Cc1cccc(Br)c1",
    "target": "UniProt:P07550",
    "assay-metric": "Imax",
    "experimental-value": 91
  },
  {
    "molecule": "CNC(=O)[C@H](Cc1cccc(Br)c1)NC(=O)c1cc(-c2ccccc2)nn1Cc1cccc(F)c1",
    "target": "UniProt:P07550",
    "assay-metric": "Imax",
    "experimental-value": 133
  },
  {
    "molecule": "CNC(=O)[C@H](Cc1cccc(Br)c1)NC(=O)c1cc(-c2ccccc2)nn1Cc1ccccc1F",
    "target": "UniProt:P07550",
    "assay-metric": "Imax",
    "experimental-value": 143
  },
  {
    "molecule": "CNC(=O)[C@H](Cc1cccc(Br)c1)NC(=O)c1cc(-c2ccc(F)cc2)nn1Cc1cccc(Br)c1",
    "target": "UniProt:P07550",
    "assay-metric": "Imax",
    "experimental-value": 130
  },
  {
    "molecule": "CNC(=O)[C@H](Cc1cccc(Br)c1)NC(=O)c1cc(-c2ccccc2)nn1Cc1ccc(Cl)cc1",
    "target": "UniProt:P07550",
    "assay-metric": "Imax",
    "experimental-value": 114
  },
  {
    "molecule": "CNC(=O)[C@H](Cc1cccc(Br)c1)NC(=O)c1cc(-c2ccc(Br)cc2)nn1Cc1cccc(Br)c1",
    "target": "UniProt:P07550",
    "assay-metric": "Imax",
    "experimental-value": 109
  },
  {
    "molecule": "CNC(=O)[C@H](Cc1cccc(Br)c1)NC(=O)c1cc(-c2ccccc2[N+](=O)[O-])nn1Cc1cccc(Br)c1",
    "target": "UniProt:P07550",
    "assay-metric": "Imax",
    "experimental-value": 120
  },
  {
    "molecule": "CNC(=O)[C@H](Cc1cccc(Br)c1)NC(=O)c1cc(-c2ccccc2Cl)nn1Cc1cccc(Br)c1",
    "target": "UniProt:P07550",
    "assay-metric": "Imax",
    "experimental-value": 118
  },
  {
    "molecule": "CNC(=O)[C@H](Cc1cccc(Br)c1)NC(=O)c1cc(-c2ccccc2)nn1Cc1ccccc1Cl",
    "target": "UniProt:P07550",
    "assay-metric": "Imax",
    "experimental-value": 114
  },
  {
    "molecule": "CNC(=O)[C@H](Cc1cccc(Br)c1)NC(=O)c1cc(-c2ccccc2)nn1Cc1cccc(Cl)c1",
    "target": "UniProt:P07550",
    "assay-metric": "Imax",
    "experimental-value": 114
  },
  {
    "molecule": "CNC(=O)[C@H](Cc1cccc(Br)c1)NC(=O)c1cc(-c2ccccc2)nn1Cc1cccc(I)c1",
    "target": "UniProt:P07550",
    "assay-metric": "Imax",
    "experimental-value": 125
  },
  {
    "molecule": "CNC(=O)[C@H](Cc1cccc(Br)c1)NC(=O)c1cc(-c2ccccc2)nn1Cc1ccc(F)cc1",
    "target": "UniProt:P07550",
    "assay-metric": "Imax",
    "experimental-value": 114
  }
]

Origin of the recorded values: ChEMBL document CHEMBL5576071
